# Tested on: histone deacetylase in nuclear extracts from H446 cells (pooled HDACs)
# procedure.summary: Histone deacetylase inhibition, H446 nuclear extracts (pooled HDACs)
# Type: biochemical, human
# conditions.used: @ 20 μM
I would appreciate it if you labelled entries Satisfied when pooled HDACs percent inhibition at the specified concentration is 10 % @ 20 μM or higher, otherwise Not satisfied.

Take a look at these entries with their results.
molecule: Nc1ccccc1NC(=O)CCc1ccc(CC(=O)c2ccccc2)o1
label.value: Not satisfied
--
molecule: Nc1ccccc1NC(=O)c1ccc(CC(=O)c2ccccc2)o1
label.value: Not satisfied
--
molecule: O=C(NO)c1ccc(CCCC(O)c2ccc3ccccc3c2)cc1 (stereo not drawn)
label.value: Not satisfied
--
molecule: Nc1ccccc1NC(=O)/C=C/c1ccc(CC(=O)c2ccccc2)o1
label.value: Satisfied
--
molecule: O=C(CCC1CCC(CC(=O)c2ccccc2)O1)NO (stereo not drawn)
label.value: Satisfied
--
molecule: Nc1ccccc1NC(=O)/C=C/C#Cc1cccc(NS(=O)(=O)c2ccccc2)c1
label.value: Not satisfied
--
molecule: O=C(CCCc1ccc(CCCc2ccccc2)cc1)NO
label.value: Satisfied

Could you now look at the following molecule, please?
**Query** Does pooled HDACs percent inhibition at the specified concentration meet or surpass 10 % @ 20 μM for `CN(C)c1ccc(CCc2ccccc2C(=O)NO)cc1` ?
**Result** Satisfied

###

# study.target: recombinant human HDAC-1 enzyme (rHDAC-1) (Homo sapiens, UniProt Q13547)
# Sequence (Q13547 whole entry): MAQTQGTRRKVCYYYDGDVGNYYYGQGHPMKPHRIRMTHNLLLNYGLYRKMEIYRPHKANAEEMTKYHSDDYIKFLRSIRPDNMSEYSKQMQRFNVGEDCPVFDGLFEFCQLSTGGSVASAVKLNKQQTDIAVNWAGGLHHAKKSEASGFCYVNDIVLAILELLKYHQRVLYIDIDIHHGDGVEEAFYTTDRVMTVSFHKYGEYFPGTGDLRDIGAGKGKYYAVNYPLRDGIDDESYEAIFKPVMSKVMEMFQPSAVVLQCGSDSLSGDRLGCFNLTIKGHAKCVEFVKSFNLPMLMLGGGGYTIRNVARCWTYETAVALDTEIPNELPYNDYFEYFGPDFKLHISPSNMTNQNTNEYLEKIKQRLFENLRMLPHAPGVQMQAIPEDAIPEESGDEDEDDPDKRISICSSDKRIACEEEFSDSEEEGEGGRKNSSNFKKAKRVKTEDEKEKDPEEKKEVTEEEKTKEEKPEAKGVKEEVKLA
# procedure.summary: Histone deacetylase inhibition, recombinant human HDAC-1
# conditions.used: cloned recombinant human HDAC-1 from Baculovirus insect cell expression system
measure.name: IC50 (µM)
Report only the number, with the unit µM understood.

Some solved entries appear below for comparison.
molecule: Nc1ccccc1NC(=O)CCc1ccc(CC(=O)c2ccccc2)o1
IC50, µM: 6.9
//
molecule: O=C(/C=C/c1ccc(NC(=O)Nc2cccc3ccccc23)cc1)NO
IC50, µM: 0.91
//
molecule: COc1ccc(NS(=O)(=O)c2ccc(/C=C/C(=O)Nc3ccccc3N)cc2)cc1OC
IC50, µM: 2.3
//
molecule: Cc1ccc(NS(=O)(=O)c2ccc(/C=C/C(=O)NO)cc2)cc1
IC50, µM: 0.05
//
molecule: O=C(C#Cc1ccc(NS(=O)(=O)c2ccc(-c3ccccc3)cc2)cc1)NO
IC50, µM: 0.3

# evaluate next
**Query** Report IC50 for `COc1ccc(NC(=O)Nc2ccc(/C=C/C(=O)NO)cc2)cc1OC` please.
**Result** 0.48

###

# study.target: recombinant human HDAC-1 enzyme (rHDAC-1) (Homo sapiens, UniProt Q13547)
# procedure.summary: Histone deacetylase inhibition, recombinant human HDAC-1
# conditions.used: cloned recombinant human HDAC-1 from Baculovirus insect cell expression system
# key: entry, value: pIC50
Value format note: pIC50 is -log10 of concentration (mol/L); just state the number.

molecule: O=C(CCc1ccc(CCCCc2ccccc2)cc1)NO [Compound 154]
study.target: recombinant human HDAC-1 enzyme (rHDAC-1) (Homo sapiens, UniProt Q13547)
measure.name: pIC50
reported.result: 6.05

molecule: O=C(NO)c1ccc(CCCC(O)c2ccc3ccccc3c2)cc1 (stereo not shown) [Compound 149]
study.target: recombinant human HDAC-1 enzyme (rHDAC-1) (Homo sapiens, UniProt Q13547)
measure.name: pIC50
reported.result: 7.00

molecule: O=C(/C=C/c1ccc(NS(=O)(=O)c2ccc(-c3ccccc3)cc2)cc1)Nc1nnc(S)s1 [Compound 165]
study.target: recombinant human HDAC-1 enzyme (rHDAC-1) (Homo sapiens, UniProt Q13547)
measure.name: pIC50
reported.result: 5.70

molecule: Cc1ccc(NS(=O)(=O)c2ccc(/C=C/C(=O)Nc3ccccc3N)cc2)cc1 [Compound 159]
study.target: recombinant human HDAC-1 enzyme (rHDAC-1) (Homo sapiens, UniProt Q13547)
measure.name: pIC50
reported.result: 5.82

molecule: O=C(CCCc1ccc(CCCCc2ccccc2)cc1)NO [Compound 156]
study.target: recombinant human HDAC-1 enzyme (rHDAC-1) (Homo sapiens, UniProt Q13547)
measure.name: pIC50
reported.result: 6.12

molecule: COc1ccc(NS(=O)(=O)c2ccc(/C=C/C(=O)Nc3nnc(S)s3)cc2)cc1OC [Compound 164]
study.target: recombinant human HDAC-1 enzyme (rHDAC-1) (Homo sapiens, UniProt Q13547)
measure.name: pIC50
reported.result: 5.30

molecule: O=C(NO)c1ccc(CCCCCc2ccccc2)cc1 [Compound 153]
study.target: recombinant human HDAC-1 enzyme (rHDAC-1) (Homo sapiens, UniProt Q13547)
measure.name: pIC50
reported.result: 5.32

molecule: O=C(CCc1ccc(CCc2ccccc2)cc1)NO [Compound 157]
study.target: recombinant human HDAC-1 enzyme (rHDAC-1) (Homo sapiens, UniProt Q13547)
measure.name: pIC50
reported.result: 5.62

molecule: COc1ccc(S(=O)(=O)Nc2ccc(CCC(=O)Nc3ccccc3N)cc2)cc1OC [Compound 121]
study.target: recombinant human HDAC-1 enzyme (rHDAC-1) (Homo sapiens, UniProt Q13547)
measure.name: pIC50
reported.result: 4.64

molecule: O=C(NO)c1ccc(/C=C/c2ccccc2)cc1 [Compound 151]
study.target: recombinant human HDAC-1 enzyme (rHDAC-1) (Homo sapiens, UniProt Q13547)
measure.name: pIC50
reported.result: 5.64

**Query** Report pIC50 for Nc1ccccc1NC(=O)/C=C/c1ccc(S(=O)(=O)Nc2ccc(-c3ccccc3)cc2)cc1 [Compound 160] please.
**Result** 5.92

**Query** Report pIC50 for O=C(/C=C/c1ccc(CC(O)c2ccccc2)o1)NO (stereo not shown) [Compound 136] please.
**Result** 6.30

**Query** Report pIC50 for COc1ccc(S(=O)(=O)Nc2ccc(/C=C/C(=O)Nc3ccccc3N)cc2)cc1 [Compound 122] please.
**Result** 5.64
